Where do these numbers come from? They come from paper PMC8159961.

biological target: human 5-HT7b receptor (Homo sapiens); construct: expressed in transfected cells; assay: GPCR radioligand binding assay, [3H]-5-CT displacement, HEK293 membranes; details: 5-HT7; average of exp_1 and exp_2
Readout Kind: %inh 5-HT7 average (%)
One number for each entry, in %.

N#Cc1ccc2ncsc2c1: -7
O=C1CNCCN1c1ccccc1: -2.46
Cc1nc(-c2ccccc2)cs1: -0.168
FC1(F)CNCC(F)(F)O1: -7

Each of the following entries comes with a recorded value; kindly state %inh 5-HT7 average for each.
1. O=C(Nc1ccccc1)C1CC1
2. COc1ccc(CN2CCNCC2)cc1F
3. O=C1CSC(Nc2ccc(F)cc2)=N1
4. c1ccc2oc(C3CCCNC3)nc2c1 (stereo not shown)
5. Cc1ccc(CCNc2ccccc2)cn1
6. Cc1ccc(-c2ccc(O)cc2)cc1

Reply:
1. -2.69
2. -0.31
3. -3.55
4. -0.305
5. -0.222
6. -7.45

###

molecular target: bovine factor Xa (Bos taurus, UniProt P00743); construct: bovine factor Xa, Chromogenix, 2 nkat/mL; purchased Chromogenix; test: Protease inhibitory assay, chromogenic substrate S-2222; type: biochemical
Sequence (P00743 234-492 limits assumed): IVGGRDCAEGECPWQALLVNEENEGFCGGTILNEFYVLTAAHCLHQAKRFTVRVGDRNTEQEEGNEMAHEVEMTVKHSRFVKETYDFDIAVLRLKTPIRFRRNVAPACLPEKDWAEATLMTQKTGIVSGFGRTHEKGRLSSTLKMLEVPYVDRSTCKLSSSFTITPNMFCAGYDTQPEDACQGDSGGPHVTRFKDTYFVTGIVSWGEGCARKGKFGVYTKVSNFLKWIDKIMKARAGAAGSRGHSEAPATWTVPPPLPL
Sequence (P00743 41-180 partner limits assumed): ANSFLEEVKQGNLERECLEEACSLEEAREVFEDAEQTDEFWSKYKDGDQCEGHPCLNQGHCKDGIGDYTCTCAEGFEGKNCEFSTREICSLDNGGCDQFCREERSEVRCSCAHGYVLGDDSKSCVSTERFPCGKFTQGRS
Readout Kind: pKi
Answers are plain numbers, as −log10 of the molar value.

Recorded results for 4 compounds are shown here.
CC(=O)c1sc(-c2ccc(O)cc2)nc1C [E1]: 3.13
O=C1NC(=O)/C(=C\c2cccs2)N1: 3.33
COc1ccccc1CC1CCNCC1: 3.40
O=C(c1ccccc1F)N1CCNCC1: 3.29

Task item: Name the recorded pKi for `Cc1cc2ccccc2nc1N` .
Reply: 3.83

###

biological target: human 5-HT6 receptor (Homo sapiens, UniProt P50406); construct: expressed in transfected cells; experiment: GPCR radioligand binding assay, [3H]-LSD displacement, HEK293 membranes; conditions: 5-HT6; replicate exp_2
Sequence (P50406 whole entry): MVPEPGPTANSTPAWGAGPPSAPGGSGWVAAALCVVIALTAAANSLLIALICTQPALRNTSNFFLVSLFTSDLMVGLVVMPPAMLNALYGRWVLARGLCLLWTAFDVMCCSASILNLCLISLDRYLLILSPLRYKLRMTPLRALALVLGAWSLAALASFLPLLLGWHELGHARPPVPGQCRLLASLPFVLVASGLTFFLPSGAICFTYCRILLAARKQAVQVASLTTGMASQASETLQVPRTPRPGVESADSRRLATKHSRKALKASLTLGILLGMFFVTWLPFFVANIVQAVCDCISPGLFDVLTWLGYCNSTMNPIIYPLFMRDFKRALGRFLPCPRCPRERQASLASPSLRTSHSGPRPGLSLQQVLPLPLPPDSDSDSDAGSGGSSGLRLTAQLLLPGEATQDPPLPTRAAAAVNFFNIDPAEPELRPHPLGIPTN
Classes by %inh 5-HT6 exp_2: low value (below 30%), medium value (30% to below 40%), high value (40% or more)

Examples from the recorded data:
O=C(c1ccncc1)N1CCNCC1 [E2]: medium value
CCn1cnc2ccccc21 [D4]: low value

Task item: Sort O=c1ccc2c([nH]1)CCCC2 [C5] into one of the categories.
Reply: high value

Task item: Please answer likewise for C1=C[C@H]2O[C@@H]1c1ccccc12 [C11]
Reply: high value

Task item: Please answer likewise for Cc1nc(-c2ccccc2)cs1 [A7]
Reply: high value

Task item: Please answer likewise for O=C1NC(=O)C2(CCc3ccccc32)N1 (centres unmarked) [B7]
Reply: medium value

Task item: Please answer likewise for CN(C)c1cc(CN)ccn1 [G3]
Reply: low value

Task item: Please answer likewise for c1ccc2sc(N3CCNCC3)nc2c1 [G5]
Reply: medium value

Task item: Please answer likewise for O=C1CCN(c2ccncc2)CC1 [G7]
Reply: low value

Task item: Please answer likewise for Brc1ccc(-c2ccon2)cc1 [A9]
Reply: low value

###

biological target: human 5-HT6 receptor (Homo sapiens, UniProt P50406); construct: expressed in transfected cells; experiment: GPCR radioligand binding assay, [3H]-LSD displacement, HEK293 membranes; settings: 10 µM
Readout Kind: 5-HT6 % Inhibition by plate position (%)
Answers are plain numbers, in %.

Recorded results for 6 molecules are shown here.
NCC1(c2ccccc2)CCOCC1: 23
Brc1ccc(-c2ccon2)cc1: 34
CCc1nccn1CC(=O)O: 0
O=C1CNCCN1c1ccccc1: 47
C1=C[C@H]2O[C@@H]1c1ccccc12: 46
Cn1nc(C(F)(F)F)cc1O: 0

From here, focus on the item given below.
Task item: Name the recorded 5-HT6 % Inhibition by plate position for `COc1ccccc1C1CCNCC1` .
Reply: 71

###

Please go through the items and note down their 5-HT6 % Inhibition by plate position.
molecular target: human 5-HT6 receptor (Homo sapiens); construct: expressed in transfected cells; assay: GPCR radioligand binding assay, [3H]-LSD displacement, HEK293 membranes; settings: 10 µM
Numbers only, in %.

Cc1ccc(C)n1Cc1ccccc1Cl: 26

Each of the following entries comes with a recorded value; kindly state 5-HT6 % Inhibition by plate position for each.
1. Clc1ccc2nnnn2n1
2. CN1CC(=O)NC1=O
3. O=C1CCC(=O)N(c2ccccc2)N1

Reply:
35
35
22

Each of the following entries comes with a recorded value; kindly state 5-HT6 % Inhibition by plate position for each.
1. Oc1nnc(-c2ccccc2)o1
2. CS(=O)(=O)c1ccc(N2CCNCC2)cc1
3. O=C(O)CC1CCC(=O)N1 (centres unmarked)
4. CC(CN)N1CCc2sccc2C1 (centres unmarked)
5. CS(=O)(=O)c1ccc(OC(F)(F)F)cc1
6. Cc1cc(-c2ccccc2)n[nH]1

Reply:
14
28
16
15
4
48

###

molecular target: human 5-HT7b receptor (Homo sapiens); construct: expressed in transfected cells; test: GPCR radioligand binding assay, [3H]-5-CT displacement, HEK293 membranes; details: 5-HT7; replicate exp_1
Readout Kind: %inh 5-HT7 exp_1 (%)
Give bare numbers, in %.

Clc1ccc2nnnn2n1 [E6]: -5
CC(CN)N1CCc2sccc2C1 (centres unmarked) [F9]: 13
Oc1ccc(-n2cncn2)cc1 [H5]: 29
O=c1[nH]c2c(s1)CCC2 [C10]: -6.56
N#CCCN1CCc2ccccc21 [F4]: 1.81

Each of the following entries comes with a recorded value; kindly state %inh 5-HT7 exp_1 for each.
1. Cn1nc(C(F)(F)F)cc1O [H6]
2. Cc1cnc(C(F)(F)F)cn1 [B9]
3. O=C(c1ccccc1)N1CCC(CO)CC1 [H9]

Reply:
1: 4; 2: 14; 3: 11

###

molecular target: human 5-HT6 receptor (Homo sapiens); construct: expressed in transfected cells; test: GPCR radioligand binding assay, [3H]-LSD displacement, HEK293 membranes; conditions: 5-HT6; average of exp_1 and exp_2
Readout Kind: %inh 5-HT6 average (%)
One number for each entry, in %.

Recorded results for 3 compounds are shown here.
CS(=O)(=O)c1ccc(OC(F)(F)F)cc1: 4
NC1CCc2ccccc21 (stereo not shown): 16
NC(c1ccccc1)c1ccccc1: 25

From here, focus on the item given below.
Task item: Name the recorded %inh 5-HT6 average for `COc1ccc(CN2CCNCC2)cc1F` .
Reply: 41

###

target: human 5-HT6 receptor (Homo sapiens); construct: expressed in transfected cells; experiment: GPCR radioligand binding assay, [3H]-LSD displacement, HEK293 membranes; details: 5-HT6; average, values below 0 and above 100% were set as 0 and 100
Values of %inh 5-HT6 corrected* strictly less than 30% map to Satisfied, and values of at least 30% map to Not satisfied.

Examples from the recorded data:
Oc1nnc(-c2ccccc2)o1: Satisfied
Cc1ccc(C)n1Cc1ccccc1Cl: Satisfied
Oc1ccc(C2CCNCC2)cc1: Not satisfied
Oc1cnc(-c2ccccc2)nc1: Not satisfied
COC(=O)c1c(C)nc(C2CC2)[nH]c1=O: Not satisfied
O=C(Nc1ccccc1)C1CC1: Not satisfied

Task item: Please state whether %inh 5-HT6 corrected* is below 30% for `CCN(CC)c1cccc(C)c1`
Reply: Not satisfied

###

Please go through the items and note down their inhibition at 10 µM.
target: human 5-HT7b receptor (Homo sapiens, UniProt P34969); construct: expressed in transfected cells; assay: GPCR radioligand binding assay, [3H]-5-CT displacement, HEK293 membranes; conditions: 10 µM; read-out: 5-HT7 % Inhibition by plate position
Sequence (P34969 1-432): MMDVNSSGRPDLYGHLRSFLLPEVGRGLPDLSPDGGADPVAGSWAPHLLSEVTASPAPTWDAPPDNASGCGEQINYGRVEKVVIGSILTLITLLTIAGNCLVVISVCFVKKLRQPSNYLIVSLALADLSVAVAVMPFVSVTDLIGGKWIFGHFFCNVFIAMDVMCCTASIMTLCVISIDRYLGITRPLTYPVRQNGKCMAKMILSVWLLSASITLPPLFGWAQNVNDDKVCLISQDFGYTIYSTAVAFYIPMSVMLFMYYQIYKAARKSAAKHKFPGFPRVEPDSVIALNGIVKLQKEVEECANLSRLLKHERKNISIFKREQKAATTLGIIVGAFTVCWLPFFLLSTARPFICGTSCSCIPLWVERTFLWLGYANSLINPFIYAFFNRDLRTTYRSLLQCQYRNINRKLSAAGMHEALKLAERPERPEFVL
Answers are plain numbers, in %.

Recorded results for 6 compounds are shown here.
Cn1c(N)nc2ccccc21: 0
Nc1nnc(-c2cccs2)[nH]1: 0
Oc1ccccc1N1CCCCC1: 0
O=C(O)c1cnc(-c2ccccc2)s1: 0
Nc1nnc2ccccn12: 0
c1ccc(Nc2nncs2)cc1: 0

Each of the following entries comes with a recorded value; kindly state inhibition at 10 µM for each.
1. CC(=O)c1sc(-c2ccc(O)cc2)nc1C [E1]
2. NC(=O)N1CCC(C(=O)O)CC1
3. O=C(O)C1CCN(c2ncccn2)CC1
4. CS(=O)(=O)Nc1ccc(C(=O)O)cc1
5. c1cnc2cccnc2c1
6. c1cnc2ncccc2c1
7. O=C(c1ccccc1F)N1CCNCC1
8. CC1CCc2sc(C(=O)O)cc2C1 (stereo not shown)

Reply:
[43, 0, 0, 9, 35, 34, 0, 4.44]

Each of the following entries comes with a recorded value; kindly state inhibition at 10 µM for each.
1. O=C1NC(=O)/C(=C\c2cccs2)N1
2. Cc1cc2ccccc2nc1N

Reply:
1. 3.77
2. 1.66

###

Please go through the items and note down their Ki.
biological target: bovine factor Xa (Bos taurus); construct: bovine factor Xa, Chromogenix, 2 nkat/mL; purchased Chromogenix; experiment: Protease inhibitory assay, chromogenic substrate S-2222; assay type: biochemical; conditions: FactorXa; substrate 200 µM; cmpd conc 200 µM; one of two values averaged in Supplementary Data 1; read-out: Ki
Give bare numbers, in µM.

Recorded results for 2 compounds are shown here.
Oc1ccccc1N1CCCCC1 [SX-A12]: 625
Cc1cc2ccccc2nc1N [SX-A1]: 152

Each of the following entries comes with a recorded value; kindly state Ki for each.
1. O=C1NC(=O)/C(=C\c2cccs2)N1 [SX-H12]
2. O=C(c1ccccc1F)N1CCNCC1 [SX-E12]

Reply:
1: 380; 2: 538

Each of the following entries comes with a recorded value; kindly state Ki for each.
1. COc1ccccc1CC1CCNCC1.Cl [SX-B12]
2. c1ccc(Nc2nncs2)cc1 [SX-D8]

Reply:
357
652

Each of the following entries comes with a recorded value; kindly state Ki for each.
1. CC(=O)c1sc(-c2ccc(O)cc2)nc1C [SX-E1]
2. Cn1c(N)nc2ccccc21 [SX-A6]

Reply:
687
297
